System: UACC-257 melanoma
Test details: NCI-60 one-dose screen, 48 h (100 = growth as untreated, 0 = no growth, -100 = all killed)
Conditions used: 10 µM unless noted
Compounds without any hit were thinned out: in the full panel of roughly 83,000, 20% have a hit.
Experimental readout: growth (%)
Kindly provide the numeric value in % only, without the unit symbol.

// query Fill blank: measured growth of the compound COc1cc(-c2nn(-c3ccc(NC(=O)Nc4cc(C(F)(F)F)cc(C(F)(F)F)c4)cc3)cc2-c2ccncc2)ccc1Cl is ____.
// result -1.38

// query Fill blank: measured growth of the compound COCC(=O)NNc1[nH]c(-c2ccc(OC)cc2)cc1C#N is ____.
// result 109

// query Fill blank: measured growth of the compound COCn1c(C(=O)OC)cc2oc(/C=C3/SC(=S)N(N)C3=O)cc21 is ____.
// result 113

// query Fill blank: measured growth of the compound CCOc1ccc(N(C)c2ccc(/C=C/C3=[N+](C)c4ccccc4C3(C)C)cc2)cc1 is ____.
// result -16.4

// query Fill blank: measured growth of the compound O=c1c2c(c3ccccc3n1-c1ccccc1)NC(=S)NC2c1ccc(Cl)cc1 (configuration not stated) is ____.
// result 44.1

// query Fill blank: measured growth of the compound COc1ccccc1C(=O)Nc1cccc(-c2cc(=O)c3c(OC)c(OC)c(OC)cc3o2)c1 is ____.
// result 61.5

// query Fill blank: measured growth of the compound COc1cc(NC(C)CCCN)c2nc(C)ccc2c1OC (configuration not stated) is ____.
// result 124

// query Fill blank: measured growth of the compound CC(C)(C)C(=O)CCCCCCCC/C=C/CCCC(O)c1ccco1 (configuration not stated) is ____.
// result 105

// query Fill blank: measured growth of the compound COC(=O)c1ccc2[nH]c(O)c(C(=Nc3ccc(N(C)C(=O)CN4CCN(C)CC4)cc3)c3ccc(OC)cc3)c2c1 is ____.
// result 48.9

// query Fill blank: measured growth of the compound COc1ccc(C(=O)c2no[n+]([O-])c2C(=O)c2ccc(OC)cc2)cc1 is ____.
// result 13.4

// query Fill blank: measured growth of the compound CCC(C)C1NC(=O)C(CC(C)C)NC(=O)C(C)NC(=O)C(C(C)C)NC(=O)C(CCCCN)NC(=O)C(CC(C)C)NC(=O)C(C(C)C)NC(=O)[C@H](C)NC(=O)C(C(C)CC)NC(=O)C(CCCN=C(N)N)NC(=O)C(CCCCN)NC(=O)C(CCCN=C(N)N)NC(=O)C(CCCCN)NC(=O)C([C@H](C)CC)NC(=O)C(CCCCN)NC1=O (some centres not stated) is ____.
// result 1.31

// query Fill blank: measured growth of the compound Cc1ccc(S(=O)(=O)N/N=C2\CC3CCC2C3)cc1 (configuration not stated) is ____.
// result 114

// query Fill blank: measured growth of the compound CCOC(=O)C1=NN(c2ccccc2)C2=NC(=O)/C(=C\c3cn(-c4ccccc4)nc3-c3cc4ccccc4o3)C(=O)N12 is ____.
// result 102

// query Fill blank: measured growth of the compound CCCCCCNc1nc(N2CCOCC2)c2[nH]c(NCCCCCC)nc2n1 is ____.
// result -95.4

// query Fill blank: measured growth of the compound COc1ccccc1Nc1nnc(COc2ccc(CNC(=O)CCCC/C=C/C(C)C)cc2OC)o1 is ____.
// result 96.7

// query Fill blank: measured growth of the compound COc1ccc2c(c1)cn1c3ccc(O)cc3[nH]c(=O)c21 is ____.
// result 51.4

// query Fill blank: measured growth of the compound COc1cc(OC)c(NC(=O)n2ncc3cc(Nc4ncnc5ccccc45)ccc32)cc1Cl is ____.
// result 118

// query Fill blank: measured growth of the compound O=CN/N=C/c1ccc(Cl)c([N+](=O)[O-])c1 is ____.
// result 18.2

// query Fill blank: measured growth of the compound O=C(O)CC1Cc2ccccc2C1C(=O)O (configuration not stated) is ____.
// result 107

// query Fill blank: measured growth of the compound O=S(=O)(Cc1cccc2c(CS(=O)(=O)c3ccc(Cl)cc3)cccc12)c1ccc(Cl)cc1 is ____.
// result 107

// query Fill blank: measured growth of the compound O=C(N/N=C\c1ccc(-c2ccc(Br)cc2)o1)c1cc2oc(-c3cccc(C(F)(F)F)c3)cc2[nH]1 is ____.
// result -48.2

// query Fill blank: measured growth of the compound CCC1(CC)C(OC)NC(Br)=C(C#N)C1(C#N)C(N)=O (configuration not stated) is ____.
// result 103
